System: human organs
procedure-text: Absorbed doses of radiation, estimates for human organs (OLINDA software)
particulars: human organ: Osteogenic Cells
For each entry below, report its radiation dose estimate, Osteogenic Cells value.
Form entry: enter the amount, then its unit.

Need radiation dose estimate, Osteogenic Cells of O=C([O-])CN1CCN(CC(=O)[O-])CCN(CC(=O)N2CCO[C@]3(CC[C@H](C(=O)N[C@@H](Cc4ccc5ccccc5c4)C(=O)NCCCC[C@H](NC(=O)N[C@@H](CCC(=O)O)C(=O)O)C(=O)O)CC3)C2)CCN(CC(=O)[O-])CC1.[68Ga+3] [^68Ga-v] , thanks.
4.65E−03 mSv/MBq

Need radiation dose estimate, Osteogenic Cells of O=C([O-])CN1CCN(CC(=O)[O-])CCN(CC(=O)NCC2CCC(C(=O)N[C@@H](Cc3ccc4ccccc4c3)C(=O)NCCCC[C@H](NC(=O)N[C@@H](CCC(=O)O)C(=O)O)C(=O)O)CC2)CCN(CC(=O)[O-])CC1.[177Lu+3] (stereo partly shown) [^177Lu-PSMA-617, reference compound] , thanks.
5.58E−01 mSv/MBq

Need radiation dose estimate, Osteogenic Cells of O=C([O-])CN1CCN(CC(=O)[O-])CCN(CC(=O)NCC2CCC(C(=O)N[C@@H](Cc3ccc4ccccc4c3)C(=O)NCCCC[C@H](NC(=O)N[C@@H](CCC(=O)O)C(=O)O)C(=O)O)CC2)CCN(CC(=O)[O-])CC1.[68Ga+3] (stereo partly shown) [^68Ga-PSMA-617, reference compound] , thanks.
3.14E−01 mSv/MBq

Need radiation dose estimate, Osteogenic Cells of O=C([O-])CN1CCN(CC(=O)[O-])CCN(CC(=O)N2CCO[C@]3(CC[C@H](C(=O)N[C@@H](Cc4ccc5ccccc5c4)C(=O)NCCCC[C@H](NC(=O)N[C@@H](CCC(=O)O)C(=O)O)C(=O)O)CC3)C2)CCN(CC(=O)[O-])CC1.[177Lu+3] [^177Lu-v] , thanks.
6.52E−01 mSv/MBq

====

Tested on: human organs
procedure-text: Absorbed doses of radiation, estimates for human organs (OLINDA software)
particulars: human organ: Salivary Glands
measured-metric: radiation dose estimate, Salivary Glands (mSv/MBq)
Number only, in mSv/MBq; omit the unit.

Need radiation dose estimate, Salivary Glands of O=C([O-])CN1CCN(CC(=O)[O-])CCN(CC(=O)NCC2CCC(C(=O)N[C@@H](Cc3ccc4ccccc4c3)C(=O)NCCCC[C@H](NC(=O)N[C@@H](CCC(=O)O)C(=O)O)C(=O)O)CC2)CCN(CC(=O)[O-])CC1.[68Ga+3] (stereo partly shown) [^68Ga-PSMA-617, reference compound] , thanks.
9.39E−03

Need radiation dose estimate, Salivary Glands of O=C([O-])CN1CCN(CC(=O)[O-])CCN(CC(=O)N2CCO[C@]3(CC[C@H](C(=O)N[C@@H](Cc4ccc5ccccc5c4)C(=O)NCCCC[C@H](NC(=O)N[C@@H](CCC(=O)O)C(=O)O)C(=O)O)CC3)C2)CCN(CC(=O)[O-])CC1.[68Ga+3] [^68Ga-v] , thanks.
1.81E−03

Need radiation dose estimate, Salivary Glands of O=C([O-])CN1CCN(CC(=O)[O-])CCN(CC(=O)NCC2CCC(C(=O)N[C@@H](Cc3ccc4ccccc4c3)C(=O)NCCCC[C@H](NC(=O)N[C@@H](CCC(=O)O)C(=O)O)C(=O)O)CC2)CCN(CC(=O)[O-])CC1.[177Lu+3] (stereo partly shown) [^177Lu-PSMA-617, reference compound] , thanks.
2.18E−03

Need radiation dose estimate, Salivary Glands of O=C([O-])CN1CCN(CC(=O)[O-])CCN(CC(=O)N2CCO[C@]3(CC[C@H](C(=O)N[C@@H](Cc4ccc5ccccc5c4)C(=O)NCCCC[C@H](NC(=O)N[C@@H](CCC(=O)O)C(=O)O)C(=O)O)CC3)C2)CCN(CC(=O)[O-])CC1.[177Lu+3] [^177Lu-v] , thanks.
1.67E−03

====

Test system: human organs
procedure-text: Absorbed doses of radiation, estimates for human organs (OLINDA software)
particulars: human organ: Testes
For each entry below, report its radiation dose estimate, Testes value.
Number only, in mSv/MBq; omit the unit.

Need radiation dose estimate, Testes of O=C([O-])CN1CCN(CC(=O)[O-])CCN(CC(=O)NCC2CCC(C(=O)N[C@@H](Cc3ccc4ccccc4c3)C(=O)NCCCC[C@H](NC(=O)N[C@@H](CCC(=O)O)C(=O)O)C(=O)O)CC2)CCN(CC(=O)[O-])CC1.[177Lu+3] (stereo partly shown) [^177Lu-PSMA-617, reference compound] , thanks.
5.04E−04

Need radiation dose estimate, Testes of O=C([O-])CN1CCN(CC(=O)[O-])CCN(CC(=O)N2CCO[C@]3(CC[C@H](C(=O)N[C@@H](Cc4ccc5ccccc5c4)C(=O)NCCCC[C@H](NC(=O)N[C@@H](CCC(=O)O)C(=O)O)C(=O)O)CC3)C2)CCN(CC(=O)[O-])CC1.[177Lu+3] [^177Lu-v] , thanks.
5.84E−04

Need radiation dose estimate, Testes of O=C([O-])CN1CCN(CC(=O)[O-])CCN(CC(=O)NCC2CCC(C(=O)N[C@@H](Cc3ccc4ccccc4c3)C(=O)NCCCC[C@H](NC(=O)N[C@@H](CCC(=O)O)C(=O)O)C(=O)O)CC2)CCN(CC(=O)[O-])CC1.[68Ga+3] (stereo partly shown) [^68Ga-PSMA-617, reference compound] , thanks.
3.69E−03

Need radiation dose estimate, Testes of O=C([O-])CN1CCN(CC(=O)[O-])CCN(CC(=O)N2CCO[C@]3(CC[C@H](C(=O)N[C@@H](Cc4ccc5ccccc5c4)C(=O)NCCCC[C@H](NC(=O)N[C@@H](CCC(=O)O)C(=O)O)C(=O)O)CC3)C2)CCN(CC(=O)[O-])CC1.[68Ga+3] [^68Ga-v] , thanks.
3.51E−04

====

Tested on: human organs
procedure-text: Absorbed doses of radiation, estimates for human organs (OLINDA software)
particulars: human organ: Heart Wall
measured-metric: radiation dose estimate, Heart Wall (mSv/MBq)
Number only, in mSv/MBq; omit the unit.

Need radiation dose estimate, Heart Wall of O=C([O-])CN1CCN(CC(=O)[O-])CCN(CC(=O)NCC2CCC(C(=O)N[C@@H](Cc3ccc4ccccc4c3)C(=O)NCCCC[C@H](NC(=O)N[C@@H](CCC(=O)O)C(=O)O)C(=O)O)CC2)CCN(CC(=O)[O-])CC1.[68Ga+3] (stereo partly shown) [^68Ga-PSMA-617, reference compound] , thanks.
3.93E−02

Need radiation dose estimate, Heart Wall of O=C([O-])CN1CCN(CC(=O)[O-])CCN(CC(=O)N2CCO[C@]3(CC[C@H](C(=O)N[C@@H](Cc4ccc5ccccc5c4)C(=O)NCCCC[C@H](NC(=O)N[C@@H](CCC(=O)O)C(=O)O)C(=O)O)CC3)C2)CCN(CC(=O)[O-])CC1.[177Lu+3] [^177Lu-v] , thanks.
2.72E−02

Need radiation dose estimate, Heart Wall of O=C([O-])CN1CCN(CC(=O)[O-])CCN(CC(=O)NCC2CCC(C(=O)N[C@@H](Cc3ccc4ccccc4c3)C(=O)NCCCC[C@H](NC(=O)N[C@@H](CCC(=O)O)C(=O)O)C(=O)O)CC2)CCN(CC(=O)[O-])CC1.[177Lu+3] (stereo partly shown) [^177Lu-PSMA-617, reference compound] , thanks.
2.41E−02

Need radiation dose estimate, Heart Wall of O=C([O-])CN1CCN(CC(=O)[O-])CCN(CC(=O)N2CCO[C@]3(CC[C@H](C(=O)N[C@@H](Cc4ccc5ccccc5c4)C(=O)NCCCC[C@H](NC(=O)N[C@@H](CCC(=O)O)C(=O)O)C(=O)O)CC3)C2)CCN(CC(=O)[O-])CC1.[68Ga+3] [^68Ga-v] , thanks.
1.62E−02

====

Test system: human organs
procedure-text: Absorbed doses of radiation, estimates for human organs (OLINDA software)
particulars: human organ: Eyes
For each entry below, report its radiation dose estimate, Eyes value.
Number only, in mSv/MBq; omit the unit.

Need radiation dose estimate, Eyes of O=C([O-])CN1CCN(CC(=O)[O-])CCN(CC(=O)N2CCO[C@]3(CC[C@H](C(=O)N[C@@H](Cc4ccc5ccccc5c4)C(=O)NCCCC[C@H](NC(=O)N[C@@H](CCC(=O)O)C(=O)O)C(=O)O)CC3)C2)CCN(CC(=O)[O-])CC1.[177Lu+3] [^177Lu-v] , thanks.
2.21E−03

Need radiation dose estimate, Eyes of O=C([O-])CN1CCN(CC(=O)[O-])CCN(CC(=O)NCC2CCC(C(=O)N[C@@H](Cc3ccc4ccccc4c3)C(=O)NCCCC[C@H](NC(=O)N[C@@H](CCC(=O)O)C(=O)O)C(=O)O)CC2)CCN(CC(=O)[O-])CC1.[68Ga+3] (stereo partly shown) [^68Ga-PSMA-617, reference compound] , thanks.
1.25E−02

Need radiation dose estimate, Eyes of O=C([O-])CN1CCN(CC(=O)[O-])CCN(CC(=O)N2CCO[C@]3(CC[C@H](C(=O)N[C@@H](Cc4ccc5ccccc5c4)C(=O)NCCCC[C@H](NC(=O)N[C@@H](CCC(=O)O)C(=O)O)C(=O)O)CC3)C2)CCN(CC(=O)[O-])CC1.[68Ga+3] [^68Ga-v] , thanks.
1.84E−03

Need radiation dose estimate, Eyes of O=C([O-])CN1CCN(CC(=O)[O-])CCN(CC(=O)NCC2CCC(C(=O)N[C@@H](Cc3ccc4ccccc4c3)C(=O)NCCCC[C@H](NC(=O)N[C@@H](CCC(=O)O)C(=O)O)C(=O)O)CC2)CCN(CC(=O)[O-])CC1.[177Lu+3] (stereo partly shown) [^177Lu-PSMA-617, reference compound] , thanks.
2.74E−03
